Tgt: Retinoic acid receptor RXR-alpha (Homo sapiens) (UniProt P19793)
Sequence (P19793 whole entry): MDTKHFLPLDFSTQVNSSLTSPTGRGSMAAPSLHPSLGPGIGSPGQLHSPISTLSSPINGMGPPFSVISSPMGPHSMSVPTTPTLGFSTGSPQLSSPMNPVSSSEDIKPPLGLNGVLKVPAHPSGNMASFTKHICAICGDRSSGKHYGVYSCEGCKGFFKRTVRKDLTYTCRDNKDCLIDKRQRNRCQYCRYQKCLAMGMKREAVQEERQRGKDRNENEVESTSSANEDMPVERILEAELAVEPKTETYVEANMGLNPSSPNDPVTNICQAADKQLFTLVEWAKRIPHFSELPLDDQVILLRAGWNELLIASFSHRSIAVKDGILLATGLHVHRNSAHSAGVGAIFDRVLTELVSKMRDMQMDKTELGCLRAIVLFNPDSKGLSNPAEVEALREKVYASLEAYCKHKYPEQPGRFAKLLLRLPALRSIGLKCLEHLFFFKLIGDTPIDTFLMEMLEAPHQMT
Protocol Text: Antagonist activity at Myc-tagged RXRalpha (unknown origin) expressed in human MCF-7 cells assessed as inhibition of 9-cis-RA induced receptor transactivation at 10 uM after 24 hrs by luciferase reporter gene assay
Type: cell-based
The source made the active and inactive calls. The rule behind the calls is not given here.
Classes used: active, inactive

Molecule: Clc1ccc(CCC(Cn2ccnc2)Sc2c(Cl)cccc2Cl)cc1 (centres undefined)
Assigned Category: active
//
Molecule: O=C1[C@H](CC[C@H](O)c2ccc(F)cc2)[C@@H](c2ccc(O)cc2)N1c1ccc(F)cc1
Assigned Category: active
//
Molecule: O=C(O)C[C@H](O)C[C@H](O)/C=C/c1c(C2CC2)nc2ccccc2c1-c1ccc(F)cc1
Assigned Category: active
//
Molecule: CC(C)n1c(/C=C/C(O)CC(O)CC(=O)O)c(-c2ccc(F)cc2)c2ccccc21 (centres undefined)
Assigned Category: active
//
Molecule: CC1=C(C)C(=O)C(C(CCCCCC(=O)O)c2ccccc2)=C(C)C1=O (centres undefined)
Assigned Category: active
//
Molecule: O=C1CCc2cc(OCCCCc3nnnn3C3CCCCC3)ccc2N1
Assigned Category: active
//
Molecule: CC[C@H](C)C(=O)O[C@H]1C[C@@H](O)C=C2C=C[C@H](C)[C@H](CC[C@@H](O)C[C@@H](O)CC(=O)O)[C@H]21
Assigned Category: inactive
//
Molecule: CC(C)c1nc(N(C)S(C)(=O)=O)nc(-c2ccc(F)cc2)c1/C=C/[C@@H](O)C[C@@H](O)CC(=O)O
Assigned Category: active
//
Molecule: O=C1C=CCC(/C=C/c2c(C3CC3)nc3ccccc3c2-c2ccc(F)cc2)O1 (centres undefined)
Assigned Category: inactive

Numbers sourced from ChEMBL document CHEMBL3997788.
